Parameter inhibition at 10 µM: see the listing below.
Biological target: PDE9A (Homo sapiens, UniProt O76083)
Sequence (O76083 whole entry): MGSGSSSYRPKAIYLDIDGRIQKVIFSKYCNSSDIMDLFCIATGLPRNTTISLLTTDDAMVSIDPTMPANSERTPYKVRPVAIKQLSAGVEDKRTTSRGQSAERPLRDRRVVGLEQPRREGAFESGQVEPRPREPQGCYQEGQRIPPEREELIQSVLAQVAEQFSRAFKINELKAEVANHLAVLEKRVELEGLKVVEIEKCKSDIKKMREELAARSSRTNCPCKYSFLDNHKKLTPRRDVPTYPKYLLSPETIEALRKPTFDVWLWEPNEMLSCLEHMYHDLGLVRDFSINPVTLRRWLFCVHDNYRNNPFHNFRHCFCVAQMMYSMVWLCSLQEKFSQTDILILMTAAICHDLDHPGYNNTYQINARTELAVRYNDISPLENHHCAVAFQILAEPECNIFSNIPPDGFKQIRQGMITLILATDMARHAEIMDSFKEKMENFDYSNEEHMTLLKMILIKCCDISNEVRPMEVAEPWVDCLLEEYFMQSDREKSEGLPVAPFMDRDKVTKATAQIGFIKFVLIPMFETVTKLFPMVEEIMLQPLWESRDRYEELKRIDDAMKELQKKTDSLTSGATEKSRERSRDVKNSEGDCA
Assay: PDE enzymatic activity assay (SPA), PDE9A
Assay type: biochemical
Design: made in house; host or cells: SF9 insect cells (crude lysate used as enzyme source)
Settings: 10 micromolar; cGMP substrate; for illustrative purposes

Compound	Measurement target	inhibition at 10 µM, %
CCOc1cc(Cl)c(-n2ncc3c(=O)[nH]c(Cc4ccccc4OC(F)(F)F)nc32)cc1C [Example 27]	PDE9A (Homo sapiens, UniProt O76083)	67
Cc1cccc(Cl)c1-n1ncc2c(=O)[nH]c(Cc3ccccc3OC(F)(F)F)nc21 [Example 24]	PDE9A (Homo sapiens, UniProt O76083)	87
O=c1[nH]c(Cc2ccccc2OC(F)(F)F)nc2c1cnn2-c1cnccc1C(F)(F)F [Example 32]	PDE9A (Homo sapiens, UniProt O76083)	91
O=c1[nH]c(Cc2ccccc2OC(F)(F)F)nc2c1cnn2-c1ccc(F)cc1Br [Example 9]	PDE9A (Homo sapiens, UniProt O76083)	90
Cc1ccc(Cl)cc1-n1ncc2c(=O)[nH]c(Cc3ccccc3OC(F)(F)F)nc21 [Example 15]	PDE9A (Homo sapiens, UniProt O76083)	94
O=c1[nH]c(Cc2ccccc2OC(F)(F)F)nc2c1cnn2-c1ccc(F)cc1O [Example 31]	PDE9A (Homo sapiens, UniProt O76083)	82
O=C(O)c1ccc(Cl)c(-n2ncc3c(=O)[nH]c(Cc4ccccc4OC(F)(F)F)nc32)c1 [Example 30-2]	PDE9A (Homo sapiens, UniProt O76083)	100
O=c1[nH]c(Cc2ccccc2OC(F)(F)F)nc2c1cnn2-c1cccc(F)c1 [Example 26]	PDE9A (Homo sapiens, UniProt O76083)	51
O=c1[nH]c(Cc2ccccc2OC(F)(F)F)nc2c1cnn2-c1ncc(F)cc1F [Example 39]	PDE9A (Homo sapiens, UniProt O76083)	97
O=C(O)c1cccc(-n2ncc3c(=O)[nH]c(Cc4ccccc4OC(F)(F)F)nc32)c1 [Example 30-1]	PDE9A (Homo sapiens, UniProt O76083)	101
O=C(c1ccc(Cl)c(-n2ncc3c(=O)[nH]c(Cc4ccccc4OC(F)(F)F)nc32)c1)N1CCOCC1 [Example 37]	PDE9A (Homo sapiens, UniProt O76083)	99
Cc1c(F)cccc1-n1ncc2c(=O)[nH]c(Cc3ccccc3OC(F)(F)F)nc21 [Example 28]	PDE9A (Homo sapiens, UniProt O76083)	96
Cc1ccc(C)c(-n2ncc3c(=O)[nH]c(Cc4ccccc4OC(F)(F)F)nc32)c1 [Example 18]	PDE9A (Homo sapiens, UniProt O76083)	86
O=c1[nH]c(Cc2ccccc2OC(F)(F)F)nc2c1cnn2-c1ccc(F)cc1 [Example 11]	PDE9A (Homo sapiens, UniProt O76083)	47
Cc1ccncc1-n1ncc2c(=O)[nH]c(Cc3ccccc3OC(F)(F)F)nc21 [Example 1]	PDE9A (Homo sapiens, UniProt O76083)	99
CN(C)C(=O)c1ccc(Cl)c(-n2ncc3c(=O)[nH]c(Cc4ccccc4OC(F)(F)F)nc32)c1 [Example 36]	PDE9A (Homo sapiens, UniProt O76083)	98
O=c1[nH]c(Cc2ccccc2OC(F)(F)F)nc2c1cnn2-c1ccc(F)cc1Cl [Example 13]	PDE9A (Homo sapiens, UniProt O76083)	96

* * *

Target: PDE9A (Homo sapiens, UniProt O76083)
Experiment: PDE enzymatic activity assay (SPA), PDE9A
Assay type: biochemical
Parameters: made in house; host or cells: SF9 insect cells (crude lysate used as enzyme source)
Settings: 10 micromolar; cGMP substrate; for illustrative purposes
Parameter inhibition at 10 µM: see the listing below.

Smi	inhibition at 10 µM
O=c1[nH]c(Cc2ccccc2OC(F)(F)F)nc2c1cnn2-c1ccc(F)cc1F	102%
Cc1cc(F)c(F)cc1-n1ncc2c(=O)[nH]c(Cc3ccccc3OC(F)(F)F)nc21	91%
O=c1[nH]c(Cc2ccccc2OC(F)(F)F)nc2c1cnn2-c1cccc(F)c1F	99%
O=c1[nH]c(Cc2ccccc2OC(F)(F)F)nc2c1cnn2-c1cccc(Cl)c1Cl	89%
CC(=O)Nc1cccc(-n2ncc3c(=O)[nH]c(Cc4ccccc4OC(F)(F)F)nc32)c1	97%
O=c1[nH]c(Cc2ccccc2OC(F)(F)F)nc2c1cnn2-c1cc(F)ccc1Br	91%
O=c1[nH]c(Cc2ccccc2OC(F)(F)F)nc2c1cnn2-c1c(Cl)cccc1Cl	58%
Cc1cc(-n2ncc3c(=O)[nH]c(Cc4ccccc4OC(F)(F)F)nc32)c(Cl)cc1F	85%
